Data credit: the supplement of paper PMC9112550

tested on: Escherichia coli TOP10; experiment: shrunken log2 fold change of peptide-encoding DNA abundance (4.5 h post-induction vs induction); higher = less antimicrobial activity (less host growth inhibition); conditions: time post-induction: 4.5 h; library: site-saturation at positions 5, 18, 19, 20
// label = MET if shrunken log2 fold change is not less than -0.2, otherwise NOT MET

- RRIRRRPPRLPRPRPRPARGPRP: MET
- RRIRMRPPRLPRPRPRPAGKPRP: MET

Request: Hi, just wondering whether RRIRGRPPRLPRPRPRPCLNPRP shows shrunken log2 fold change of -0.2 or higher.
Response: MET

###

system: Escherichia coli TOP10; test: shrunken log2 fold change of peptide-encoding DNA abundance (4.5 h post-induction vs induction); higher = less antimicrobial activity (less host growth inhibition); conditions: time post-induction: 4.5 h; library: site-saturation at positions 5, 18, 19, 20
readout.name: shrunken log2 fold change
Field format: numeric only.

Example entries begin here.
* RRIRERPPRLPRPRPRPKNDPRP | -0.467
* RRIRCRPPRLPRPRPRPMDPPRP | -0.543
* RRIRTRPPRLPRPRPRPNVTPRP | -0.182
* RRIRIRPPRLPRPRPRPKFHPRP | -0.375
* RRIRMRPPRLPRPRPRPARDPRP | 1.65
* RRIRARPPRLPRPRPRPLGKPRP | 0.237
* RRIRGRPPRLPRPRPRPIGTPRP | 0.334
* RRIRYRPPRLPRPRPRPVPMPRP | -0.158
* RRIRCRPPRLPRPRPRPESFPRP | 0.0159
* RRIRKRPPRLPRPRPRPEPCPRP | 0.0397

// sample RRIRERPPRLPRPRPRPHWYPRP , its shrunken log2 fold change was -1.19

// sample RRIRRRPPRLPRPRPRPIDDPRP , its shrunken log2 fold change was -0.128

// sample RRIRCRPPRLPRPRPRPSIWPRP , its shrunken log2 fold change was -0.342

// sample RRIRPRPPRLPRPRPRPRRMPRP , its shrunken log2 fold change was 0.297

// sample RRIRHRPPRLPRPRPRPGPEPRP , its shrunken log2 fold change was 1.6

// sample RRIRCRPPRLPRPRPRPLEYPRP , its shrunken log2 fold change was -0.0414

// sample RRIRCRPPRLPRPRPRPDTSPRP , its shrunken log2 fold change was -0.365

// sample RRIRCRPPRLPRPRPRPIDYPRP , its shrunken log2 fold change was -0.651

// sample RRIRMRPPRLPRPRPRPQICPRP , its shrunken log2 fold change was 0.058

// sample RRIRPRPPRLPRPRPRPGIYPRP , its shrunken log2 fold change was -0.133

// sample RRIRWRPPRLPRPRPRPIPDPRP , its shrunken log2 fold change was -0.0879

###

system: Escherichia coli TOP10; test: shrunken log2 fold change of peptide-encoding DNA abundance (4.5 h post-induction vs induction); higher = less antimicrobial activity (less host growth inhibition); details: time post-induction: 4.5 h; library: site-saturation at positions 5, 18, 19, 20;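 note: peptides expressed intracellularly from a pBAD plasmid library in pooled LB shake-flask culture, induced with 0.3% L-arabinose, DNA abundance read by NGS, three biological replicates, DESeq2 with apeglm shrinkage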
Listed below: shrunken log2 fold change values for each entry.
Field format: numeric only.

Example entries begin here.
* RRIRYRPPRLPRPRPRPILKPRP | -1.06
* RRIRFRPPRLPRPRPRPFFKPRP | -0.251
* RRIRYRPPRLPRPRPRPGVYPRP | -0.0135

// sample RRIRWRPPRLPRPRPRPQKSPRP , its shrunken log2 fold change was 0.0128

// sample RRIRWRPPRLPRPRPRPLLLPRP , its shrunken log2 fold change was 0.152

// sample RRIRDRPPRLPRPRPRPAVLPRP , its shrunken log2 fold change was -0.014

// sample RRIRRRPPRLPRPRPRPIMFPRP , its shrunken log2 fold change was -0.0974

// sample RRIRYRPPRLPRPRPRPSPTPRP , its shrunken log2 fold change was -0.167
